Tested on: T. gondii RH GFP tachyzoites
Assay: T. gondii RH GFP tachyzoite viability assay, 72 h continuous exposure
Type: cell-based, Toxoplasma gondii
Details: CC50/IC50, 72 h continuous exposure
Assignment: determine reported SI for the given compounds.

Quick note, SI for `CC(=NO)C(C)=NN=C1NC(=O)/C(=C/c2ccccc2O)S1` landed at >25.9

Quick note, SI for `CC(=N/O)/C(C)=N\N=C1/NC(=O)/C(=C/c2ccc(O)c(O)c2)S1` landed at >18.1

Quick note, SI for `COc1ccc(C=C2SC(=NN=C(C)C(C)=NO)NC2=O)cc1` landed at 10.2

Quick note, SI for `CC(C)(C)n1nc(-c2c[nH]c3ccccc23)c(C#N)c1-c1c(Cl)cccc1Cl` landed at >11.4

Quick note, SI for CCc1nc(N)nc(N)c1-c1ccc(Cl)cc1 [Pyrimethamine, pyrimethamine, reference compound] landed at >666

Quick note, SI for `CC(=N/O)/C(C)=N\N=C1/NC(=O)/C(=C/c2ccc(Cl)cc2)S1` landed at >1.1

Quick note, SI for COc1cc(C2=NNC(c3ccc(F)cc3)C2)ccc1O (stereo not drawn) landed at 19.6

Quick note, SI for COc1cc(C2=NNC(c3ccc(Cl)cc3)C2)ccc1O (stereo not drawn) landed at 73.3

Quick note, SI for `CC(=N/O)/C(C)=N\N=C1\NC(=O)/C(=C/c2cc3ccccc3[nH]c2=O)S1` landed at >16.8
